Experiment: Stability in CWE with protease inhibitor cocktail (PIC), capillary zone electrophoresis
Assay type: in vitro ADME, human
Details: 1 mg/ml in PBS mixed 1:1 with CWE (1 mg/ml protein, pool of 5 donors) in PBS containing PIC (final 1:140 v/v), 37°C, 72 h; CZE, ratio to imidazole, 0 h = 100%; experiment 1 of 3
Where no end group is shown, it is not given here.
Quantity kind: Percentage intact, CWE + PIC 72h (%)

SHREFPFYGDYGS [mad-Hst1] = 74.0975
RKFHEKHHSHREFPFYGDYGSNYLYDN [Hst2] = 69.8915
cyclo(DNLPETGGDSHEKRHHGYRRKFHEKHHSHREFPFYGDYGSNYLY) [cHst1] = 63.1229
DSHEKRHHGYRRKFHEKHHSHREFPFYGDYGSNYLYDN [Hst1] = 64.2173
